tested on: Cryptococcus neoformans; assay: Antifungal activity against Cryptococcus neoformans ATCC 90113 assessed as growth inhibition after 70-74 hrs by CLSI method; format: functional, organism-based; conditions: Cryptococcus neoformans, ATCC 90113; read-out: IC50
reported-metric: IC50 (µg/mL)
Express it in µg/mL; write the number only.

Here is how some compounds turned out for IC50.
C[C@@H]1[C@H](O)[C@@H](C)/C=C/C=C/C=C/C=C/C=C/C=C/C=C/[C@H](O[C@@H]2O[C@H](C)[C@@H](O)[C@H](N)[C@@H]2O)C[C@@H]2O[C@](O)(C[C@@H](O)C[C@@H](O)[C@H](O)CC[C@@H](O)C[C@@H](O)CC(=O)O[C@H]1C)C[C@H](O)[C@H]2C(=O)O [AMPHOTERICIN B]; 0.69
CC(C)(C)c1ccc(-c2nc(C[C@H](NC(=O)[C@@H](N)Cc3c[nH]c4ccccc34)C(=O)NCc3ccccc3)c[nH]2)cc1; 4.53

Then there is this compound:
Prompt: Give the observed IC50 of `COC(=O)[C@H](CCCNC(=N)N)NC(=O)[C@@H](N)Cc1c[nH]c(-c2ccc(C(C)(C)C)cc2)n1` for Cryptococcus neoformans.
Completion: 10.2
